molecular target: Rap guanine nucleotide exchange factor 4 (Homo sapiens) (UniProt Q8WZA2); experiment: Confirmatory qHTS for antagonist of cAMP-regulated guanine nucleotide exchange factor 4 (EPAC2) (AID 1645885); settings: EPAC2 Rap1B-BODIPY-GDP exchange fluorescence, biochemical; series mostly up to 114 µM; further: on the % scale 0 is the no-effect control and ±100 the full control effect; nearly all actives have a fitted effect of over 25% in size
Sequence (Q8WZA2 whole entry, looked up): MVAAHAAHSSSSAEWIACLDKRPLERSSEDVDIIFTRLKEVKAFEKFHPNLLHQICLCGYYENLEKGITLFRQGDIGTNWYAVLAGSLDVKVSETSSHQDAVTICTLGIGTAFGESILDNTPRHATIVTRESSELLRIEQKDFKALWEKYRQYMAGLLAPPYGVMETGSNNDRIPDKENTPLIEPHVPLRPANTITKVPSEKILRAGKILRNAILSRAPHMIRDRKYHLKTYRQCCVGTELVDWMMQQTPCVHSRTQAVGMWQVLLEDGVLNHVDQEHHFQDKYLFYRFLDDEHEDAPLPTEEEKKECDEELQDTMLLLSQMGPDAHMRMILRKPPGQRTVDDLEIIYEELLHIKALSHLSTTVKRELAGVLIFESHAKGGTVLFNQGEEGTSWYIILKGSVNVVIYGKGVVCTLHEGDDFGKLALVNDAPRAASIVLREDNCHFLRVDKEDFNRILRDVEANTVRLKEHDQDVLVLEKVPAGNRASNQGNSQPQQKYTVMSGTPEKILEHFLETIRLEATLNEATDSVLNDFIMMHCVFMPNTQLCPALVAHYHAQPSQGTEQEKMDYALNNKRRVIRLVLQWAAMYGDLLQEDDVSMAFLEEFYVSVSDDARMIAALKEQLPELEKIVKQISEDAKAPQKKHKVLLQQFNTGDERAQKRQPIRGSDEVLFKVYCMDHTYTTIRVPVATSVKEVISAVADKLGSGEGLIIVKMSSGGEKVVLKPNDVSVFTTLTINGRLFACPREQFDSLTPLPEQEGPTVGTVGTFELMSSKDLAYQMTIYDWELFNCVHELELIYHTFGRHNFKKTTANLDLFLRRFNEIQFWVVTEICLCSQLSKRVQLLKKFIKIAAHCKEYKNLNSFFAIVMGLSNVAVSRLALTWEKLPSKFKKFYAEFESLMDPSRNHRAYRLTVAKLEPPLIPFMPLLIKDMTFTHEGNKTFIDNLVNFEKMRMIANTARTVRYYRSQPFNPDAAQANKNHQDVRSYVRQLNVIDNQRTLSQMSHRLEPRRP
Inconclusive results are not listed. The source made the active and inactive calls. The call rests on the fitted dose curve; in most records, active means well fitted inhibition curve with a large enough effect; inconclusive means small, poorly fitted or top-dose-only effect; inactive means no such curve, though single readings can be large or run the other way.
READOUT: activity change, negative = inhibition

CCn1c(O)c(C=Nc2ccc(N3CCOCC3)cc2)c(=O)n(CC)c1=S	inactive
CC[C@@H]1c2ccccc2[C@@H]2CC[C@H]1N2c1ccccc1	-6.37% [at 12.7 µM] (inactive)
CCCNC(=O)N1[C@H]2CC[C@@H]1C(C(=O)OC)=C(c1ccc(F)cc1OCc1ccccc1)C2	inactive
COc1ccc(-n2nnnc2C(c2cccs2)N2CCC(n3c(=O)[nH]c4ccccc43)CC2)cc1 (stereo not drawn)	inactive
COc1cc(/C=C/c2nc3ccccc3c(=O)n2-c2cccc(O)c2)ccc1O	inactive

Request: // query activity change, negative = inhibition value for entry CCN(CC)c1ccc(N=Cc2c(O)n(CCC3=CCCCC3)c(=O)[nH]c2=O)cc1
Response: inactive

Request: Could you share which activity change, negative = inhibition value was measured for O=C1Nc2ccccc2/C1=C/c1nc2ccccc2c(=O)n1-c1ccc(O)cc1 ?
Response: 0.205% [at 12.7 µM] (inactive)

Request: Using the record for CC(C)c1ccc(C(c2c(O)c3ccccc3oc2=O)c2c(O)c3ccccc3oc2=O)cc1 , report its activity change, negative = inhibition.
Response: inactive

###

assay: qHTS for inhibitors of ER calcium dysfunction: SERCaMP assay screened against the NCATS CANVASS Library (AID 1347393); settings: SH-SY5Y GLuc-SERCaMP (Gaussia luciferase released on ER calcium loss) secretion, thapsigargin, luminescence; series mostly up to 76.6 µM; further: nearly all actives have a fitted effect of over 40% in size; further: potency means the concentration at half of the fitted maximal effect
Inconclusive results are not listed. Active and inactive are the calls of the source. Calls come from the whole dose curve; as a rule, active = well fitted inhibition curve with a large enough effect; inconclusive = small, poorly fitted or top-dose-only effect; inactive = no such curve, though single readings can be large or run the other way.
READOUT: Potency

Guide cases for Potency, answers given:
CO[C@H]1[C@H](O[C@H]2CC[C@]3(C=O)[C@H]4CC[C@]5(C)[C@@H](C6=CC(=O)OC6)CC[C@]5(O)[C@@H]4CC[C@]3(O)C2)O[C@H](C)[C@H](O)[C@@H]1OC	inactive
C[N+](C)(C)CCc1c[nH]c2ccccc12	inactive
C=CC(C)(C)[C@@]12C[C@H]3C(=O)N/C(=C\c4cnc[nH]4)C(=O)N3[C@@H]1Nc1ccccc12	34.3 µM (active)
COC1=C(C2=C(OC)C(=O)c3cc4c(c(O)c3C2=O)C(=O)O[C@H](C)C4)C(=O)c2c(cc3c(c2O)C(=O)O[C@H](C)C3)C1=O	inactive
CCC(=O)N[C@@H](C[C@H](C)C(Cl)(Cl)Cl)C(=O)N1C(=O)C=C(OC)[C@@H]1C[C@H](C)C(Cl)Cl	27.2 µM (active)

Request: If you can, please state the reported Potency value of CO[C@H]([C@@H](C)[C@H]1O[C@]1(C)C[C@H](C)/C=C/C=C(\C)[C@H]1O[C@@H](CC(=O)O)CC[C@@H]1C)[C@@H](C)O .
Response: inactive

###

test: Primary qHTS for inhibitors of SARS-S pseudo-typed particle cell entry (AID 1479145); details: SARS-S pseudotyped particle cell entry, luciferase reporter; series mostly up to 57.1 µM; further: nearly all actives have a fitted effect of over 45% in size; further: potency means the concentration at half of the fitted maximal effect
Inconclusive results are not listed. Activity calls are given as the source filed them. Calls come from the whole dose curve.
READOUT: Potency

Known Potency results, listed for orientation:
CO[C@H](C(=O)[C@@H](O)[C@@H](C)O)C1Cc2cc3cc(O[C@H]4C[C@@H](O[C@H]5C[C@@H](O)[C@H](O)[C@@H](C)O5)[C@@H](O)[C@@H](C)O4)c(C)c(O)c3c(O)c2C(=O)[C@H]1O[C@H]1C[C@@H](O[C@H]2C[C@@H](O[C@H]3C[C@](C)(O)[C@H](O)[C@@H](C)O3)[C@H](O)[C@@H](C)O2)[C@H](O)[C@@H](C)O1 (some centres undefined)	3.55 µM (active)
CCN(CC)Cc1cc(Nc2ccnc3cc(Cl)ccc23)ccc1O	10 µM (active)
Nc1c(Br)cc(Br)cc1CNC1CCC(O)CC1 (centres undefined)	inactive
O=C1O[C@H]2[C@H](OC(O)[C@@H]2O)[C@@H]1O (some centres undefined)	inactive

Request: Entry CS(=O)(=O)OCC(O)C(O)COS(C)(=O)=O (centres undefined) : reported Potency = ?
Response: inactive

Request: Need Potency, item CCN(CC)CCOC(=O)c1ccc(N)cc1Cl
Response: inactive

Request: Looking for the measured Potency of CCCCCCCCCCCCCCCC(=O)OC[C@@H](O)[C@H]1OC[C@H](O)[C@H]1O , can you help?
Response: inactive

###

target: Rap guanine nucleotide exchange factor 3 (Homo sapiens) (UniProt O95398); experiment: Counterscreen qHTS for antagonist of cAMP-regulated guanine nucleotide exchange factor 3 (EPAC1) (AID 1645888); details: Rap1B-BODIPY-GDP nucleotide exchange, fluorescence; series mostly up to 154 µM;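 further: fluorescence loss as bound BODIPY-GDP is released from Rap1B; % of control where 0% means no effect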
Sequence (O95398 whole entry, looked up): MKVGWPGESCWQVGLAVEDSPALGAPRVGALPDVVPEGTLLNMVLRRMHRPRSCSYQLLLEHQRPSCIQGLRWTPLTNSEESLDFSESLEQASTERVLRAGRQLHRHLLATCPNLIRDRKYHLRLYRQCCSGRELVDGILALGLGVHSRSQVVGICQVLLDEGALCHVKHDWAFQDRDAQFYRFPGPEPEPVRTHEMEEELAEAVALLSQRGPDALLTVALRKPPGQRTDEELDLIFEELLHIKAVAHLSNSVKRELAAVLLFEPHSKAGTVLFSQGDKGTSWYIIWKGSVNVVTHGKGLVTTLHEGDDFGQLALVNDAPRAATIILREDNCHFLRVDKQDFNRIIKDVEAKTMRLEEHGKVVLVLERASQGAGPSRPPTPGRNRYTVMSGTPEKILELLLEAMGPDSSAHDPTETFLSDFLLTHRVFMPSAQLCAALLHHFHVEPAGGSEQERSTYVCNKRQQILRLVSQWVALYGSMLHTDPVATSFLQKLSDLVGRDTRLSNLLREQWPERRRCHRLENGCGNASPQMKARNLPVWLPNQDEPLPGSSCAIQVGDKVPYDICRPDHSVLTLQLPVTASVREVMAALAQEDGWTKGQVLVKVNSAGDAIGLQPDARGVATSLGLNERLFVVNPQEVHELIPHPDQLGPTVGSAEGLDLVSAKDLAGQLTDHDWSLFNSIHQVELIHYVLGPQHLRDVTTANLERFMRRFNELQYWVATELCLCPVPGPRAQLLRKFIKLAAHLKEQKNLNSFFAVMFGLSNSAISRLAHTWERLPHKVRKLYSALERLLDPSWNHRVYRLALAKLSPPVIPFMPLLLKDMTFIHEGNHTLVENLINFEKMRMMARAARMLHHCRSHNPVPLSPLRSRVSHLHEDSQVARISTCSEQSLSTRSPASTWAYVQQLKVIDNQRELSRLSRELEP
Inconclusive results are not listed. Calls of active or inactive are those of the source. The call rests on the fitted dose curve; in most records, active means well fitted inhibition curve with a large enough effect; inconclusive means small, poorly fitted or top-dose-only effect; inactive means no such curve, though single readings can be large or run the other way.
READOUT: activity change, negative = inhibition

Cc1cccc(-n2c(O)c(/C=C/C=Nc3ccccc3)c(=O)[nH]c2=O)c1	inactive
Cc1ccccc1OCC(=O)N1CCN(CCc2ccccn2)CC1	inactive
CCN(CC)C(=O)Cn1cc(C=C2C(=O)N(C)C(=O)N(C)C2=O)c2ccccc21	-5.5% [at 30.8 µM] (inactive)
Cc1ccc(N2C(=O)NC(=O)/C(=C\c3cc(C)n(-c4sc5c(c4C#N)CCCC5)c3C)C2=O)cc1	inactive

###

assay: Primary qHTS to identify inhibitors of SARS-CoV-2 cell entry (AID 1645846); settings: SARS-CoV-2 pseudovirus cell entry assay, luminescence; at 57.1 µM (top of the series) unless noted; further: nearly all actives have a fitted effect of over 45% in size
Inconclusive results are not listed.
READOUT: activity change, negative = inhibition

// worked examples, activity change, negative = inhibition included
CC[C@@]1(O)C(=O)OCc2c1cc1n(c2=O)Cc2c-1nc1ccccc1c2CCNC(C)C	-96.8% [at 5.25 µM]
CC(C)[C@H]1C(=O)N[C@@H](CCCN=C(N)N)C(=O)NCC(=O)N[C@@H](CC(=O)O)C(=O)N[C@H](Cc2ccccc2)C(=O)N1C	-11.5% [at 27.1 µM]

Request: Could you share which activity change, negative = inhibition value was measured for CC[C@]12C=CCN3CC[C@@]4(c5cc([C@@]6(C(=O)OC)C[C@H]7C[C@@H](C(C)(F)F)CN(Cc8c6[nH]c6ccccc86)C7)c(OC)cc5N(C)[C@H]4[C@@](O)(C(=O)OC)[C@@H]1OC(C)=O)[C@@H]32 ?
Response: -76.7% [at 19 µM]

###

Assay: Primary qHTS to identify inhibitors of SARS-CoV-2 cell entry (AID 1645846); further: nearly all actives have a fitted effect of over 45% in size
Settings: SARS-CoV-2 pseudovirus cell entry assay, luminescence
Text: Assay Provider: Wei Zheng, Ph.D. National Center for Advancing Translational Sciences, National Institute of Health, Rockville, MD. SARS-CoV-2 spike protein, within the viral envelope, mediates viral attachment and infection of host cells. The SARS-CoV-2 spike protein specifically binds to the host receptor ACE2 (Angiotensin-converting enzyme 2). […] 11. […] Read luminescence signal (Viewlux plate reader, PerkinElmer). […]
Inconclusive results are not listed. Active and inactive are the calls of the source. Calls follow the shape of the full dose curve. Numbered stars: 1 amine (or outer) side, 2 acyl side, 3 side chain; on linkers, the order of the positions; unused ones are H or OH. Bridge positions count the residues as written; N and C are the ends. Square brackets hold non-standard residues; d marks the D form. Peptide text beside a SMILES is read from it. * marks the point of attachment. X6 = NC1=N[C@@H](O)C[C@H]([C@H](N[*:1])C(=O)[*:2])N1; ΔAla(Z-3-ureido) = NC(=O)N/C=C(\N)C(=O)O; β3hOrn = NCCC[C@H](N)CC(=O)*; Dap = NC[C@H](N)C(=O)O
# output must be one of active, inactive

CO[C@H]1/C=C/O[C@@]2(C)Oc3c(C)c(O)c4c(O)c(c5c(c4c3C2=O)=NC2(CCN(CC(C)C)CC2)N=5)NC(=O)/C(C)=C/C=C/[C@H](C)[C@H](O)[C@@H](C)[C@@H](O)[C@@H](C)[C@H](OC(C)=O)[C@@H]1C	inactive
Cc1c(F)cccc1NC(=O)Nc1ccc(Cl)c(S(=O)(=O)[C@H]2CCCNC2)c1O	inactive
NCCC[C@H](N)CC(=O)N[C@H]1CNC(=O)[C@H]([C@H]2C[C@H](O)N=C(N)N2)NC(=O)/C(=C/NC(N)=O)NC(=O)[C@H](CO)NC(=O)[C@H](CO)NC1=O (β3hOrn-[Dap]SS[ΔAla(Z-3-ureido)][X6]; lactam 1-C)	inactive
CN[C@@H](C)C(=O)N[C@H](C(=O)N1CCC[C@H]1C(=O)Nc1sc(-c2ncco2)nc1-c1ccccc1)C1CCCCC1	inactive
C[C@@H]1C[C@H]2[C@@H]3C[C@H](F)C4=CC(=O)C=C[C@]4(C)[C@@]3(F)[C@@H](O)C[C@]2(C)[C@@]1(O)C(=O)COC(=O)C(C)(C)C	inactive
CCCCCCCC(=O)CC[C@@H]1[C@@H](C/C=C\CCCC(=O)OC(C)C)[C@@H](O)C[C@H]1O	active

Attention now turns to another entry.
Request: Test call for this molecule, please: O[C@@H]([C@H](O)[C@@H](O)CBr)[C@@H](O)CBr
Response: inactive

Each recorded value in this set is attributed to PubChem BioAssay (NCATS).
